Reported IC50 by item:
Tested on: HIV-1 HXB2 AZT resistant
experimental.details: microbe, parasite or virus in culture
Assay type: cell-based
test.settings: Human immunodeficiency virus 1, HXB2, C8166, 96 h, read-out: HIV-1 HXB2 (IC50 μM) AZT resistant
// return numeric value only (unit: µM, not printed)

O=c1cc(-c2cccc3c2Sc2ccccc2S3)oc(N2CCOCC2)c1 ... 0.06

Okay, now this compound:
Reported IC50 of Cc1cn([C@H]2C[C@H](N=[N+]=[N-])[C@@H](CO)O2)c(=O)[nH]c1=O [AZT, 3′-azido-3′-deoxythymidine, reference compound] : 0.05

----------
Reported IC50 by item:
target.entity: ATM (Homo sapiens, UniProt Q13315)
Construct: ATM protein was immunoprecipitated from HeLa cell nuclear extract; endogenous in cells; host or cells: HeLa cell nuclear extract (immunoprecipitate)
Sequence (Q13315 whole entry): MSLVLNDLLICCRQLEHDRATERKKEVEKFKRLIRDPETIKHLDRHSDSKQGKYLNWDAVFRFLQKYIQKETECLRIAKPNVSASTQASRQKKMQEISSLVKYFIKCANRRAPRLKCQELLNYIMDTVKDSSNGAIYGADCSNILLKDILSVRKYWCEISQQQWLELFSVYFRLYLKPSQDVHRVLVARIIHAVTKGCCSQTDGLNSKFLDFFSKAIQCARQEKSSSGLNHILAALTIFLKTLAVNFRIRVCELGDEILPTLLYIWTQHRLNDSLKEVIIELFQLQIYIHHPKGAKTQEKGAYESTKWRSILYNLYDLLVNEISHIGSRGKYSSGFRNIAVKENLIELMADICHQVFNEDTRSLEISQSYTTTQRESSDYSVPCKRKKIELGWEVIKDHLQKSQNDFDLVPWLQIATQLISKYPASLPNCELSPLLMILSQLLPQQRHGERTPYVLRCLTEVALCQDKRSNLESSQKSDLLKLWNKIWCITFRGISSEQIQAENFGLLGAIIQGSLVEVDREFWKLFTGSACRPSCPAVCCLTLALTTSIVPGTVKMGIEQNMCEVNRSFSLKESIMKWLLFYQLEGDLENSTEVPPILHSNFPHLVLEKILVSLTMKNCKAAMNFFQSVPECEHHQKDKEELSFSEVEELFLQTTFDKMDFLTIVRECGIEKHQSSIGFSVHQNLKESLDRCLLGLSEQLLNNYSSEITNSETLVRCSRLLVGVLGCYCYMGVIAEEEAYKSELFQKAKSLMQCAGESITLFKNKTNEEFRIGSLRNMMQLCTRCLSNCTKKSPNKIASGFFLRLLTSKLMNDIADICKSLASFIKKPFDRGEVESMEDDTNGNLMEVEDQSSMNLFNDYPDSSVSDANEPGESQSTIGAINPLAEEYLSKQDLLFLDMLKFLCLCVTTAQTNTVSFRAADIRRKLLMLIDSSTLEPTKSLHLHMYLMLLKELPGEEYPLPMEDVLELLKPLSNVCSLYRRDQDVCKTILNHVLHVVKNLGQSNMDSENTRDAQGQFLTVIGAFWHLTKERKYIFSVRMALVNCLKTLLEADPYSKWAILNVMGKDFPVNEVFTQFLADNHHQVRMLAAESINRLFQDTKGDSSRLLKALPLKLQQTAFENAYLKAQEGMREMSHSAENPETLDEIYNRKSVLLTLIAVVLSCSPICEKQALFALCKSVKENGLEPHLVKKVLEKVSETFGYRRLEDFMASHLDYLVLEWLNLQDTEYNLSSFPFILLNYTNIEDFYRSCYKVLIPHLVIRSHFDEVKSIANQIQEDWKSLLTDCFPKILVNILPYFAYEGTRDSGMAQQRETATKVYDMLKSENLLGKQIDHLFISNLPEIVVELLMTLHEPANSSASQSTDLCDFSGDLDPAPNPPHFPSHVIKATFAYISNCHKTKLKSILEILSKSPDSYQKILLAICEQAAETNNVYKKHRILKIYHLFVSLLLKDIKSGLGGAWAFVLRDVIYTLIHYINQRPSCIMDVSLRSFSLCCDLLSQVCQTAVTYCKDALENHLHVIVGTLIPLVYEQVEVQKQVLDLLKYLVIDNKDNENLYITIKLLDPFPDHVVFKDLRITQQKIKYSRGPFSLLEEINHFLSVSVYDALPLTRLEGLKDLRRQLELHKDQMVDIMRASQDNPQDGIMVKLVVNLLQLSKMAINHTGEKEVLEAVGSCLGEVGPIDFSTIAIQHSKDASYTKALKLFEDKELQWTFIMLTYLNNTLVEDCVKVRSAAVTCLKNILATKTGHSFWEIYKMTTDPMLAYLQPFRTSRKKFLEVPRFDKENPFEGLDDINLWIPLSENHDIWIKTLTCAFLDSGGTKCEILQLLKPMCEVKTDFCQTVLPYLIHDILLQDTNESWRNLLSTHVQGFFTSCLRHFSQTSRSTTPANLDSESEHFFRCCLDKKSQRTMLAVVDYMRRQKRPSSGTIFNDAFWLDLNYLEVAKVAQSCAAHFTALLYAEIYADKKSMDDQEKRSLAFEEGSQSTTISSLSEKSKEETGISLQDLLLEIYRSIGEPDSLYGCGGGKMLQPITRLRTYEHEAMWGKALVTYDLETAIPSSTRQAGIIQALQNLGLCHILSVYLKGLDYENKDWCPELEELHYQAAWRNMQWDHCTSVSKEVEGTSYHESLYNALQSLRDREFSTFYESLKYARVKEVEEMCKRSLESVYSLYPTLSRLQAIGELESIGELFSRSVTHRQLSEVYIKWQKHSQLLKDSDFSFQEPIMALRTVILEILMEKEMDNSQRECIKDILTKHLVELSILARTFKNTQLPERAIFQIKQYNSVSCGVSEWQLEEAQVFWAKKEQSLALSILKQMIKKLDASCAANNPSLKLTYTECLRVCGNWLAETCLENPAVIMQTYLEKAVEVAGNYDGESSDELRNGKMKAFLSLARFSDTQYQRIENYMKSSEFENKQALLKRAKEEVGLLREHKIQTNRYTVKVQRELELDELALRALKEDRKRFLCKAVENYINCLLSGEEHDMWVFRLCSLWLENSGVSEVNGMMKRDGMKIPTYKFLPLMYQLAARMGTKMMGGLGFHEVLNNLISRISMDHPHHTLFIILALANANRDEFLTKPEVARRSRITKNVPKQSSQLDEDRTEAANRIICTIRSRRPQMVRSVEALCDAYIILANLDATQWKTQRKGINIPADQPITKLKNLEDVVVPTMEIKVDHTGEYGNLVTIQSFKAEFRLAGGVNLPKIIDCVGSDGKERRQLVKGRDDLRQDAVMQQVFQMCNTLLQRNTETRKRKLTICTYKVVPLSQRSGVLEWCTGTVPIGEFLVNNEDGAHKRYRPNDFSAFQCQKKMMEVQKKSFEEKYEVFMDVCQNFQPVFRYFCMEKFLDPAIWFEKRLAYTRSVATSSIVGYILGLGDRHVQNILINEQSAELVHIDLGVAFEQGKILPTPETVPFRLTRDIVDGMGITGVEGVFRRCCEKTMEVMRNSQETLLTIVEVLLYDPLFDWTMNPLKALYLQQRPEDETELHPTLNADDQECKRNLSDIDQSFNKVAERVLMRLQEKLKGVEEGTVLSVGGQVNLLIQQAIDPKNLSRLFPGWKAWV
experimental.details: In vitro ATM inhibition assay (phosphorylation of GSTp53N66 on serine 15)
Format: biochemical

Consider the following illustrative entries.
O=C(NCCN1CCOCC1)c1ccc2c(c1)Sc1cccc(-c3cc(=O)cc(N4CCOCC4)o3)c1S2 ... < 200 nM
O=C(O)C(F)(F)C(F)(F)C(=O)Nc1ccc2c(c1)Cc1cccc(-c3cc(=O)cc(N4CCOCC4)o3)c1S2 ... < 200 nM
CC(=O)N1CCC(C(=O)Nc2ccc3c(c2)Cc2cccc(-c4cc(=O)cc(N5CCOCC5)o4)c2S3)CC1 ... < 200 nM

Form: item O=C(Nc1ccc(-c2cc(=O)cc(N3CCOCC3)o2)c2c1Cc1ccccc1S2)c1ccco1 ; test system ATM (Homo sapiens, UniProt Q13315); IC50: < 200 nM

Form: item CC(C)CNC(=O)c1ccc2c(c1)Sc1cccc(-c3cc(=O)cc(N4CCOCC4)o3)c1S2 ; test system ATM (Homo sapiens, UniProt Q13315); IC50: < 200 nM

Form: item Cc1cc(C(=O)Nc2ccc3c(c2)Cc2cccc(-c4cc(=O)cc(N5CCOCC5)o4)c2S3)no1 ; test system ATM (Homo sapiens, UniProt Q13315); IC50: < 200 nM

This collection of values is drawn from patent US7049313B2.
